Tested on: DU-145
ASSAY_DETAILS: Antiproliferative activity against human DU145 cells after 3 days by fluorescence assay
Assay type: functional
EXPERIMENTAL_CONDITIONS: DU-145, 72 h
ATTRIBUTE_MEASURED: GI50 (µM)
Record the value in µM, omitting the unit from your answer.

{"COMPOUND_STRUCTURE_STRING": "O=C(NCCc1ccccc1)N1CCC(c2nc(-c3ccc(F)cc3)no2)CC1", "TARGET_OF_ASSAY": "DU-145", "GI50 / µM": 13.6}

IN: For the compound `O=C(NCc1ccco1)N1CCC(c2nc(-c3ccc(F)cc3)no2)CC1` , give its reported GI50.
OUT: 3.3

IN: For the compound `O=C(NCCc1c[nH]c2ccccc12)N1CCC(c2nc(-c3ccc(F)cc3)no2)CC1` , give its reported GI50.
OUT: 9.8

IN: For the compound `O=C(NCc1cccs1)N1CCC(c2nc(-c3ccc(F)cc3)no2)CC1` , give its reported GI50.
OUT: 1.7

IN: For the compound `O=C(NCc1ccccc1)N1CCC(c2nc(-c3ccc(F)cc3Cl)no2)CC1` , give its reported GI50.
OUT: 2.9

IN: For the compound `O=C(NCc1ccccc1)N1CCC(c2nc(COc3ccccc3)no2)CC1` , give its reported GI50.
OUT: 0.52

IN: For the compound `O=C(NCc1ccccc1)N1CCC(c2nc(Cc3ccccc3)no2)CC1` , give its reported GI50.
OUT: 0.76

IN: For the compound `Cc1ccc(-c2noc(C3CCN(C(=O)NCc4ccccc4)CC3)n2)cc1` , give its reported GI50.
OUT: 1.6

IN: For the compound `Cc1ccccc1-c1noc(C2CCN(C(=O)NCc3ccccc3)CC2)n1` , give its reported GI50.
OUT: 12.3

IN: For the compound `O=C(NCc1ccccc1)N1CCC(c2nc(-c3ccccc3Cl)no2)CC1` , give its reported GI50.
OUT: 9.3

* * *

TARGET_OF_ASSAY: Tubulin
ASSAY_DETAILS: Displacement of [3H]-colchicine from tubulin (unknown origin) after 10 mins by turbidimetrically
ATTRIBUTE_MEASURED: IC50 (nM)
Record the value in nM, omitting the unit from your answer.

Here are 7 molecules together with their reported answers.
{"COMPOUND_STRUCTURE_STRING": "Cc1ccc(-c2noc(C3CCN(C(=O)NCc4ccccc4)CC3)n2)cc1", "IC50 [nM]": 1100}
{"COMPOUND_STRUCTURE_STRING": "COc1cccc(NC(=O)N2CCC(c3nc(-c4ccc(Cl)cc4)no3)CC2)c1", "IC50 [nM]": 5300}
{"COMPOUND_STRUCTURE_STRING": "COc1cccc(NC(=O)N2CCC(c3nc(-c4ccc(C)cc4)no3)CC2)c1", "IC50 [nM]": 3000}
{"COMPOUND_STRUCTURE_STRING": "O=C(NCc1ccccc1)N1CCC(c2nc(-c3ccc(F)cc3)no2)CC1", "IC50 [nM]": 1600}
{"COMPOUND_STRUCTURE_STRING": "Cc1ccc(-c2noc(C3CCN(C(=O)NCc4ccco4)CC3)n2)cc1", "IC50 [nM]": 2300}
{"COMPOUND_STRUCTURE_STRING": "O=C(NCc1ccccc1)N1CCC(c2nc(-c3ccccc3)no2)CC1", "IC50 [nM]": 1800}
{"COMPOUND_STRUCTURE_STRING": "O=C(NCc1ccccc1)N1CCC(c2nc(-c3ccccc3Cl)no2)CC1", "IC50 [nM]": 2600}

IN: For the molecule `O=C(NCc1ccco1)N1CCC(c2nc(-c3ccc(Cl)cc3)no2)CC1` , give its reported IC50.
OUT: 2000

* * *

Test system: DU-145
ASSAY_DETAILS: Antiproliferative activity against human DU145 cells after 3 days by fluorescence assay
Assay type: functional
EXPERIMENTAL_CONDITIONS: DU-145, 72 h
Below: a set of entries, each annotated with reported log10 GI50.
Annotation: log10 of GI50, µM basis.

Here are 3 compounds together with their reported answers.
{"COMPOUND": "O=C(NCc1ccsc1)N1CCC(c2nc(COc3ccccc3)no2)CC1", "TARGET_OF_ASSAY": "DU-145", "log10 GI50": 0.23}
{"COMPOUND": "O=C(N1CCC(c2nc(-c3ccc(F)cc3)no2)CC1)N1CCc2ccccc2C1", "TARGET_OF_ASSAY": "DU-145", "log10 GI50": 1.32}
{"COMPOUND": "CN(Cc1ccco1)C(=O)N1CCC(c2nc(-c3ccc(F)cc3)no2)CC1", "TARGET_OF_ASSAY": "DU-145", "log10 GI50": 1.23}

IN: For the compound `Cc1ccc(-c2noc(C3CCN(C(=O)NCc4ccco4)CC3)n2)cc1` , give its reported log10 GI50.
OUT: 0.34

IN: For the compound O=C(NCc1ccsc1)N1CCC(c2nc(Cc3ccccc3)no2)C1 (stereo not given) , give its reported log10 GI50.
OUT: 0.81

* * *

System: DU-145
ASSAY_DETAILS: Antiproliferative activity against human DU145 cells after 3 days by fluorescence assay
Assay type: functional
EXPERIMENTAL_CONDITIONS: DU-145, 72 h
Criterion: GI50 strictly under 3000 nM. Met: fulfilled. Not met: not fulfilled.

{"COMPOUND_STRUCTURE_STRING": "Cc1cc(CNC(=O)N2CCC(c3nc(COc4ccccc4)no3)CC2)nn1C", "TARGET_OF_ASSAY": "DU-145", "CLASS_LABEL": "fulfilled"}
{"COMPOUND_STRUCTURE_STRING": "O=C(NCc1ccoc1)N1CCC(c2nc(-c3ccc(F)cc3)no2)CC1", "TARGET_OF_ASSAY": "DU-145", "CLASS_LABEL": "fulfilled"}
{"COMPOUND_STRUCTURE_STRING": "O=C(NCc1ccccc1)N1CCC(c2nc(CCN3CCOCC3)no2)CC1", "TARGET_OF_ASSAY": "DU-145", "CLASS_LABEL": "not fulfilled"}
{"COMPOUND_STRUCTURE_STRING": "O=C(NCc1ccsc1)N1CCC(c2nc(Cc3ccccc3)no2)CC1", "TARGET_OF_ASSAY": "DU-145", "CLASS_LABEL": "fulfilled"}
{"COMPOUND_STRUCTURE_STRING": "O=C(NCc1ccccc1)N1CCC(c2nc(CCN3CCc4ccccc4C3)no2)CC1", "TARGET_OF_ASSAY": "DU-145", "CLASS_LABEL": "not fulfilled"}
{"COMPOUND_STRUCTURE_STRING": "Cc1cc(CNC(=O)N2CCC(c3nc(Cc4ccccc4)no3)CC2)nn1C", "TARGET_OF_ASSAY": "DU-145", "CLASS_LABEL": "fulfilled"}

IN: Report whether reported GI50 is lower than 3000 nM (strictly) for `O=C(NCc1ccco1)N1CCC(c2nc(-c3ccc(Cl)cc3)no2)CC1`
OUT: fulfilled

* * *

Below: a set of entries, each annotated with reported GI50.
Tested on: DU-145
ASSAY_DETAILS: Antiproliferative activity against human DU145 cells after 3 days by fluorescence assay
Type: functional
EXPERIMENTAL_CONDITIONS: DU-145, 72 h
Record the value in nM, omitting the unit from your answer.

Here are 9 compounds together with their reported answers.
{"COMPOUND_STRUCTURE_STRING": "O=C(NCc1ccccc1)N1CCC(c2nc(-c3ccc(F)cc3)no2)CC1", "READOUT_VALUE": 2800}
{"COMPOUND_STRUCTURE_STRING": "O=C(NCc1ccc2c(c1)OCO2)N1CCC(c2nc(-c3ccc(F)cc3)no2)CC1", "READOUT_VALUE": 1300}
{"COMPOUND_STRUCTURE_STRING": "COc1cccc(NC(=O)N2CCC(c3nc(-c4ccc(C)cc4)no3)CC2)c1", "READOUT_VALUE": 4500}
{"COMPOUND_STRUCTURE_STRING": "Cc1cc(CNC(=O)N2CCC(c3nc(-c4ccc(F)cc4)no3)CC2)nn1C", "READOUT_VALUE": 940}
{"COMPOUND_STRUCTURE_STRING": "Cc1cccc(-c2noc(C3CCN(C(=O)NCc4ccccc4)CC3)n2)c1", "READOUT_VALUE": 1200}
{"COMPOUND_STRUCTURE_STRING": "COc1cc(OC)cc(-c2noc(C3CCN(C(=O)NCc4ccccc4)CC3)n2)c1", "READOUT_VALUE": 4400}
{"COMPOUND_STRUCTURE_STRING": "O=C(NCc1ccsc1)N1CCC(c2nc(-c3ccc(F)cc3)no2)CC1", "READOUT_VALUE": 650}
{"COMPOUND_STRUCTURE_STRING": "O=C(NCc1ccco1)N1CCC(c2nc(-c3ccccc3)no2)CC1", "READOUT_VALUE": 6000}
{"COMPOUND_STRUCTURE_STRING": "O=C(NCc1ccccc1)N1CCC(c2nc(-c3ccccc3)no2)CC1", "READOUT_VALUE": 1900}

IN: For the compound `COc1cccc(NC(=O)N2CCC(c3nc(-c4ccc(Cl)cc4)no3)CC2)c1` , give its reported GI50.
OUT: 9500

Value source: ChEMBL document CHEMBL3352299
